TGI values by entry
System: SK-MEL-28 melanoma
procedure.details: NCI tumour cell line growth inhibition, 48 h
A number alone suffices; assume µM.

FC(F)(F)c1cccc(-c2nc3nc(Cl)c(Cl)nc3[nH]2)c1 = 27.3

Item CCCN1C(=O)NC(=O)C(CC)(N2C(=O)c3c(F)c(F)c(F)c(F)c3C2=O)C1=O (stereo not given) has what recorded TGI?
3.22

Item Nc1nc2ccc(-c3nc4ccc5[nH]ncc5c4c4c3CCC4)cc2s1 has what recorded TGI?
7.89

Item O=C(c1ccc2ccccc2c1)c1c(C(F)(F)F)n([O-])c2ccc(C(F)(F)F)cc2[n+]1=O has what recorded TGI?
2.86

###

Test system: HCC-2998 colon
procedure.details: NCI tumour cell line growth inhibition, 48 h; in the data active means GI50 below about 0.43 µM; inactive means the rest
Classes to choose from: active, inactive

Which result was noted for this compound in the test: O=C(O)c1nc(NCc2nc3cc(Cl)ccc3o2)n[nH]1
inactive

Which result was noted for this compound in the test: Cc1cc([NH-])c([NH-])cc1C.[Cl][Pt+2][Cl]
inactive

Which result was noted for this compound in the test: COc1ccc(C2=Nn3c(nnc3-c3cc(Cl)cc(Cl)c3Cl)SC2)cc1
inactive

Which result was noted for this compound in the test: COc1cc(/C=C/C(=O)/C=C/c2cc(OC)c3c(c2)OCO3)cc2c1OCO2
inactive

Which result was noted for this compound in the test: CCN1C(=O)N(CC)C2C1NN=c1s/c(=C\c3ccc(Cl)cc3Cl)c(=O)n12 (stereo not given)
active

###

Tested on: LOX IMVI melanoma
procedure.details: NCI tumour cell line growth inhibition, 48 h
TGI values by entry

Item CC1=NNC(=O)C1C1C(=O)NN=C(c2c[nH]c3ccccc23)C1Br (centres undefined) has what recorded TGI?
> 100 µM

Item C=CCOC(=O)N1c2ccc(O[Si](C)(C)C(C)(C)C)cc2[C@@]23O[C@@]24[C@@H]1C#C/C=C\C#C[C@]3(O)C(OC)(OC)C[C@@H]4C has what recorded TGI?
> 100 µM

Item O=C(/C=C/c1ccccc1)Oc1cccc2cccnc12 has what recorded TGI?
> 100 µM

Item Cc1ccc(Nc2nc3[nH]ccc3c(=O)[nH]2)cc1 has what recorded TGI?
> 100 µM

Item CC1=C2C(=C[C@@](C)(CO)[C@@H]2OC(=O)N(C)CCN(C)C(=O)OC(C)(C)C)C(=O)[C@](C)(O)C12CC2 has what recorded TGI?
> 50 µM

###

Tested on: MDA-MB-435
procedure.details: NCI tumour cell line growth inhibition, 48 h
TGI values by entry

C[C@@H](NC(C#N)c1ccco1)c1ccccc1 (some centres undefined) = > 100 µM

Item NC(=O)CNC(=O)[C@@H]1CC(OCCC(=O)O)CN1C(=O)C1CCCN1C(=O)OCc1ccccc1 (some centres undefined) has what recorded TGI?
> 100 µM

Item NC(=O)Nc1c(Cl)cc(S(N)(=O)=O)cc1Cl has what recorded TGI?
> 100 µM

Item Cn1c(=O)c2[nH]c(N/N=N/c3nncs3)nc2n(C)c1=O has what recorded TGI?
> 100 µM

Item COc1ccc2c(c1)C(=O)CC1c3cnccc3C(=O)N21 (centres undefined) has what recorded TGI?
> 31.6 µM

Item CC(=O)O[C@H]1CC(C)(C)C(=C=C/C(C)=C/C=C/C=C/C=C(C)/C=C2C=C(/C=C/[C@@]34O[C@]3(C)C[C@@H](O)CC4(C)C)C(=O)O/2)[C@](C)(O)C1 has what recorded TGI?
> 100 µM

Item O=C(NCC1CC1)c1ccc(-c2cccc(C(=O)NC3CC3)c2)cc1 has what recorded TGI?
> 25 µM

Item N#CCCN(CCC#N)c1ccc(/C=C2\N=C(c3ccccc3)N(c3ccc(F)cc3)C2=O)cc1 has what recorded TGI?
> 100 µM

Item O=C(Nc1cccc(Cl)c1)Nn1cnnc1 has what recorded TGI?
> 100 µM

Item CN1CCN(C(=S)N(C)C(=O)c2ccco2)CC1 has what recorded TGI?
> 100 µM

Item O=c1[nH]cc(NCCCl)c(=O)[nH]1 has what recorded TGI?
> 100 µM

###

TGI values by entry
System: EKVX NSCLC
procedure.details: NCI tumour cell line growth inhibition, 48 h

Known TGI results, listed for orientation:
S=C1c2ccc(Cl)cc2-n2cnnc2C2CSCN12 (stereo not given) = > 100 µM
CC(C)(C)c1ccc(OCCOc2ccc(C(C)(C)C)cc2N)c(N)c1 = > 100 µM
c1ncn(C23C4C5C6C4C2C6C53)n1 (stereo not given) = > 100 µM
CCOC(=O)Oc1c(OC)cc(C(=O)c2ccc(OC)c(O)c2OC)cc1OC = > 100 µM

Item C#CCNC(CSSCC(N)C(=O)O)C(=O)O (stereo not given) has what recorded TGI?
> 100 µM

###

Tested on: MDA-MB-435
procedure.details: NCI tumour cell line growth inhibition, 48 h
quantity.kind: TGI

Known TGI results, listed for orientation:
COc1ccc(N2CC(=O)N(C(=O)COc3ccc(OCC(=O)N4C(=O)CN(c5ccc(OC)cc5)C4=S)cc3)C2=S)cc1 = > 100 µM
Cc1ccc(Nc2nc3[nH]ccc3c(=O)[nH]2)cc1 = > 100 µM

Item O=S(=O)(/N=c1\scc(-c2ccccc2)n1-c1ccccc1)c1ccc(N2N=C3c4ccccc4CC3C2c2ccc(Cl)cc2)cc1 (stereo not drawn) has what recorded TGI?
> 100 µM

###

GI50 values by entry
System: SK-MEL-2 melanoma
procedure.details: NCI tumour cell line growth inhibition, 48 h

Known GI50 results, listed for orientation:
O=S(=O)(Nc1ccc(Br)cc1)c1ccc(-c2cnc(C3CC3)o2)cc1 = 4.2 µM
COc1ccc2c(c1)C(=O)/C(=C/c1cccc(OCC(=O)c3ccccc3)c1)CC2 = 13.4 µM

// below: GI50 requested for another molecule
Item O=C(c1ccc2ccccc2c1)c1c(C(F)(F)F)n([O-])c2ccc(C(F)(F)F)cc2[n+]1=O has what recorded GI50?
1.96 µM

###

TGI values by entry
Test system: NCI-H522 lung
procedure.details: NCI tumour cell line growth inhibition, 48 h

Known TGI results, listed for orientation:
N#CC(C#N)=C/C=C(\Cl)c1ccc(Cl)cc1 = > 49.6 µM
COc1cc(/C=C/C(=O)/C=C/c2cc(OC)c3c(c2)OCO3)cc2c1OCO2 = > 100 µM

// below: TGI requested for another compound
Item COc1ccc2c(c1)C(=O)/C(=C/c1cccc(OCC(=O)c3ccccc3)c1)CC2 has what recorded TGI?
> 100 µM

###

TGI values by entry
System: OVCAR-5 ovarian
procedure.details: NCI tumour cell line growth inhibition, 48 h

Known TGI results, listed for orientation:
Nc1ncn([C@@H]2S[C@H](CO)[C@@H](O)[C@@H]2F)c(=O)n1 = > 100 µM
CCn1nc(C)c2c1C(=O)NCC(=O)N2 = > 100 µM
COc1cc2c(c(O)c1O)C(=O)C1CCC(=O)N1C2c1cccc2ccccc12 (centres undefined) = > 50 µM

// below: TGI requested for another compound
Item CCC/C(Cl)=N\OC(=O)Nc1ccc(F)cc1 has what recorded TGI?
36 µM

###

GI50 values by entry
Tested on: HT29 colon
procedure.details: NCI tumour cell line growth inhibition, 48 h

Known GI50 results, listed for orientation:
COc1ccc2c(c1)C(=O)/C(=C/c1cccc(OCC(=O)c3ccccc3)c1)CC2 = 9.9 µM
O=C1/C(=C/c2ccc([N+](=O)[O-])cc2)CN(C(=O)CCN2CCC(=NO)CC2)C/C1=C\c1ccc([N+](=O)[O-])cc1 = 0.477 µM
c1ccc(C2ONC3=NCCN32)cc1 (stereo not given) = 67.9 µM
O=C(/C=C(/C=C/c1ccc2[nH]ccc2c1)OB(F)F)/C=C/c1ccc2[nH]ccc2c1 = 1.47 µM

// below: GI50 requested for another compound
Item O=C(NCC1CC1)c1ccc(-c2cccc(C(=O)NC3CC3)c2)cc1 has what recorded GI50?
> 25 µM

###

System: UACC-62 melanoma
procedure.details: NCI tumour cell line growth inhibition, 48 h
TGI values by entry

COc1cc2c(c(O)c1O)C(=O)C1CCC(=O)N1C2c1cccc2ccccc12 (stereo not given) = > 50 µM
O=C(/C=C(/C=C/c1ccc2[nH]ccc2c1)OB(F)F)/C=C/c1ccc2[nH]ccc2c1 = 5.02 µM
O=c1ncccn1[C@@H]1O[C@H](CO)[C@H](O)C1O (stereo not given in full) = > 100 µM

Item O=C1OCC2=C1C(c1cccc(F)c1)c1cc3c(cc1N2CCO)OCO3 (stereo not given) has what recorded TGI?
> 50 µM

Item Cc1c(/C=N/NC(=O)c2ccccc2O)c(=O)n(-c2ccccc2)n1C has what recorded TGI?
> 100 µM

###

TGI values by entry
Tested on: NCI-H226 lung
procedure.details: NCI tumour cell line growth inhibition, 48 h

Known TGI results, listed for orientation:
Cn1c(=O)nc2n(-c3ccc(O)cc3)c3ccccc3nc-2c1=O = > 100 µM
COC(=O)c1sc(C(=O)OC)c2c1CS(=O)C2 = > 100 µM
COc1ccc(N2C(=O)C3c4[nH]c5ccc(OCc6ccccc6)cc5c4C4CCC(c5ccccc5)CC4C3C2=O)cc1 (stereo unspecified) = > 83.8 µM

Item O=C(/C=C/c1ccccc1)Oc1cccc2cccnc12 has what recorded TGI?
> 66.7 µM

Item Cc1c(OC(C)C(=O)O)ccc2c(-c3ccccc3)cc(=O)oc12 (stereo unspecified) has what recorded TGI?
> 100 µM

Item CC(CO)Nc1cc(-c2[nH]c3cccnc3c2-c2ccc(F)cc2)ccn1 (stereo unspecified) has what recorded TGI?
> 25 µM
